molecular target: UniProtKB Q9UHL4
readout.kind: IC50 (nM)

structure.smiles.string	unit	observed.result
N[C@H](C(=O)N1CCSC1)[C@H]1CC[C@H](NC(=O)c2ccc(Cl)c(Cl)c2)CC1	nM	230
N[C@H](C(=O)N1CCSC1)[C@H]1CC[C@H](NC(=O)c2ccc(I)cc2)CC1	nM	340
N[C@H](C(=O)N1CCSC1)[C@H]1CC[C@H](NC(=O)Nc2ccc(OC(F)(F)F)cc2)CC1	nM	350

P = N[C@H](C(=O)N1CCSC1)[C@H]1CC[C@H](NC(=O)Nc2ccc(F)c(F)c2)CC1
Q = N[C@H](C(=O)N1CCSC1)[C@H]1CC[C@H](NC(=O)OCc2ccc(Cl)c(Cl)c2)CC1
Task: Field: entry with larger IC50 (options P / Q ). Mark your answer with the label of the selected entry.
Result: P

###

Reported pKi values are given for each entry in this list.
biological target: Voltage-gated inwardly rectifying potassium channel KCNH2 (Homo sapiens); test: Binding affinity for Potassium channel HERG Kv11.1
Sequence (Q12809 whole entry): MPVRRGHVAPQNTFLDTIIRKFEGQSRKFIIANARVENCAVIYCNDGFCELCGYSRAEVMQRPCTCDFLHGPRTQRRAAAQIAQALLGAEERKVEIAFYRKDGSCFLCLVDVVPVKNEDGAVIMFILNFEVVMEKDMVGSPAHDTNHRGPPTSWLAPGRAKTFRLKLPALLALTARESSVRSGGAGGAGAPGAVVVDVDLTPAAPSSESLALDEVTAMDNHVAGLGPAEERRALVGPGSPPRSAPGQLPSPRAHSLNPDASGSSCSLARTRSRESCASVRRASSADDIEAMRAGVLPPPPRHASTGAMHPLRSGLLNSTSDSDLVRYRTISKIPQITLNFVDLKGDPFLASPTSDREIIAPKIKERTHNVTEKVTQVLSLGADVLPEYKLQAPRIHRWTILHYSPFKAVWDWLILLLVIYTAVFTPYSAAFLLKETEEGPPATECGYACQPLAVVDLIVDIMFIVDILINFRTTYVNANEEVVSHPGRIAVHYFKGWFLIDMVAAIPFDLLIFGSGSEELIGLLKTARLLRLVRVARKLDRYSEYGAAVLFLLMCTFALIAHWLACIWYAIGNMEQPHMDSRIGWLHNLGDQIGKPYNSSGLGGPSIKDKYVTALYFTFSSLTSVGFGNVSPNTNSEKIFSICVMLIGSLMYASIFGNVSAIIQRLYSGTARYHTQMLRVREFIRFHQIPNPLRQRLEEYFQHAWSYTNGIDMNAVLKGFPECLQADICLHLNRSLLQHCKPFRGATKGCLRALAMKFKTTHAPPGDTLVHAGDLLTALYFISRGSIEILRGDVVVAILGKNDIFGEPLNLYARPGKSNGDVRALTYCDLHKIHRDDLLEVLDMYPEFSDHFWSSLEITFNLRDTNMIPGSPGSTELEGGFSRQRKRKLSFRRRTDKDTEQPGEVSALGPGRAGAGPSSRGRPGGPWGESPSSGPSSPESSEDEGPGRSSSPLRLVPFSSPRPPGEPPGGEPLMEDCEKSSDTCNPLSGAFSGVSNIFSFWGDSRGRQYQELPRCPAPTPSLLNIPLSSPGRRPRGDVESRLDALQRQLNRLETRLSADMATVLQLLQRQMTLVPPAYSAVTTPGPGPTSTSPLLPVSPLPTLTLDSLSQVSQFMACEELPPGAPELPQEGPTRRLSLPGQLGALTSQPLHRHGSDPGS
In textbook form, pKi equals minus log to base ten of the concentration in mol/L.

Please review the following examples before continuing.
structure.smiles.string	pKi
N[C@H](C(=O)N1CCCC1)[C@H]1CC[C@H](NC(=O)c2cccc3ccccc23)CC1	4.77
N[C@H](C(=O)N1CCSC1)[C@H]1CC[C@H](NC(=O)Nc2ccc(I)cc2)CC1	5.72

Alright, here's another compound for you.
Task: Test system Voltage-gated inwardly rectifying potassium channel KCNH2 (Homo sapiens); read-out pKi; what value for N[C@H](C(=O)N1CCSC1)[C@H]1CC[C@H](NC(=O)c2cccc3ccccc23)CC1 ?
Result: 4.66

###

assay: Oral bioavailability (F) in dogs; type: ADME, organism-based, Canis lupus familiaris; details: dog, in vivo
readout.kind: bioavailability (%)
Express your answer in %, writing the number without its unit.

Task: // bioavailability lookup, key: N[C@H](C(=O)N1CCCC1)[C@H]1CC[C@H](NS(=O)(=O)c2ccc(F)cc2F)CC1
Result: 100

###

Consider compounds characterized by their IC50 with Dipeptidyl peptidase 2 (Homo sapiens).
readout.kind: IC50 (nM)

structure.smiles.string	readout.kind	observed.result
N#Cc1cccc(S(=O)(=O)N[C@H]2CC[C@H]([C@H](N)C(=O)N3CCSC3)CC2)c1	IC50	820
N[C@H](C(=O)N1CCSC1)[C@H]1CC[C@H](NC(=O)c2cccc3ccccc23)CC1	IC50	900
N[C@H](C(=O)N1CCSC1)[C@H]1CC[C@H](NC(=O)Nc2ccc(I)cc2)CC1	IC50	210

a = CN(C)C(=O)Nc1ccc(S(=O)(=O)N[C@H]2CC[C@H]([C@H](N)C(=O)N3CCSC3)CC2)cc1
b = N[C@H](C(=O)N1CCCC1)[C@H]1CC[C@H](NC(=O)c2cccc3ccccc23)CC1
Task: Field: entry with larger IC50 (options a / b ). Mark your answer with the label of the selected entry.
Result: b
(b: 8600 nM, a: 2000 nM)

###

experiment: Plasma clearance in rats; type: ADME, organism-based; conditions: rat, read-out: Clp
readout.kind: clearance (mL/min/kg)

Please review the following examples before continuing.
structure.smiles.string	unit	clearance
N[C@H](C(=O)N1CCCC1)[C@H]1CC[C@H](NS(=O)(=O)c2ccc(OC(F)(F)F)cc2)CC1	mL/min/kg	31
N[C@H](C(=O)N1CCCC1)[C@H]1CC[C@H](NS(=O)(=O)c2ccc(NS(=O)(=O)CC(F)(F)F)cc2)CC1	mL/min/kg	95
N[C@H](C(=O)N1CCCC1)[C@H]1CC[C@H](NC(=O)OCc2ccccc2)CC1	mL/min/kg	28

1 = N[C@H](C(=O)N1CCSC1)[C@H]1CC[C@H](NC(=O)Nc2ccc(I)cc2)CC1
2 = CN(C)C(=O)Nc1ccc(S(=O)(=O)N[C@H]2CC[C@H]([C@H](N)C(=O)N3CCCC3)CC2)cc1
3 = N[C@H](C(=O)N1CCSC1)[C@H]1CC[C@H](NC(=O)c2ccc(F)c(F)c2)CC1
4 = N[C@H](C(=O)N1CCCC1)[C@H]1CC[C@H](NC(=O)c2cccc3ccccc23)CC1
Task: Arrange the 4 compounds from largest to smallest clearance. Give me the labels in the order the question wants.
Result: 1, 3, 2, 4

All figures here come from ChEMBL document CHEMBL1146708.
